- System: HEK293
- test details: Cytotoxicity against HEK293 cells at 20 uM by MTT assay
- Type: cell-based
- condition context: human, hek293, 20 µM
property label: Activity

Examples with answers:
molecule | Activity
C=C1C(=O)O[C@H]2[C@@H]3[C@@H](CC[C@@]3(C)O)C(=C)CC[C@@H]12 | Non-toxic
C=C1C(=O)O[C@@H]2[C@@H](O)[C@]3(C)CC[C@H]3[C@](C)(OC)CC[C@@H]12 | Non-toxic
C=C1C(=O)O[C@H]2[C@H]1CC/C(C)=C\CC[C@@]1(C)O[C@@H]21 | Non-toxic
C=C1C(=O)O[C@@H]2C3O[C@]3(C)CC/C=C(\C)CC[C@@H]12 (stereo partly specified) | Non-toxic
C=C1C(=O)O[C@@H]2[C@@H](O)[C@]3(C)CC[C@H]3[C@](C)(O)CC[C@@H]12 | Non-toxic

# evaluate next
Query: Entry C=C1C(=O)O[C@H]2[C@@H]3[C@@H](CC[C@@]3(C)O)[C@](C)(OC)CC[C@@H]12 has what Activity?
Result: Non-toxic
